From: PubChem BioAssay AID228

- Test system: BDF1 mice, Friend leukemia sc, tumor weight T/C
- test description: NCI In Vivo Anticancer Drug Screen. Data for tumor model Friend Virus Leukemia (Solid) (subcutaneous) in B6D2F1 (BDF1) mice
- protocol conditions: endpoint: mean tumor weight; dose: 0.1 mg/kg/injection; schedule: Q01DX011 (ip); vehicle: carboxymethylcellulose (CMC); higher = larger tumour
Inconclusive results are not listed.
This section presents molecules with their documented T/C values.

Solved cases (2 shown):
| molecule | recorded measurement |
| --- | --- |
| CO[C@@]12[C@H](COC(N)=O)C3=C(C(=O)C(C)=C(N)C3=O)N1C[C@@H]1N[C@@H]12 | 66 % of control |
| CCCCCCCCCCCC[n+]1c(C)cc(N)c2ccccc21 | 182 % of control |

### Prompt Name the recorded T/C for N#Cc1cn(C2OC(CO)C(O)C2O)c2ncnc(N)c12 (centres undefined) .
### Response 72 % of control

### Prompt Can you check C[C@]12CC[C@H](OC3OC(CO)C(O)C(O)C3O)C[C@H]1CC[C@@H]1[C@@H]2CC[C@]2(C)[C@@H](C3=CCOC3=O)CC[C@]12O (some centres undefined) next?
### Response 69 % of control

====

- Tested on: BDF1 mice, Friend leukemia sc, tumor weight T/C
- test description: NCI In Vivo Anticancer Drug Screen. Data for tumor model Friend Virus Leukemia (Solid) (subcutaneous) in B6D2F1 (BDF1) mice
- protocol conditions: endpoint: mean tumor weight; dose: 8.0 mg/kg/injection; schedule: Q01DX011 (ip); vehicle: carboxymethylcellulose (CMC); higher = larger tumour
Inconclusive results are not listed.
Listing: T/C of selected compounds

See these solved cases before continuing.
| compound | tested target | T/C |
| --- | --- | --- |
| NC(Cc1ccc(N(CCCl)CCCl)cc1)C(=O)O (stereo unspecified) | BDF1 mice, Friend leukemia sc, tumor weight T/C | 7 % of control |
| CCN(CC)CCNc1ccc(C)c2sc3ccccc3c(=O)c12 | BDF1 mice, Friend leukemia sc, tumor weight T/C | 174 % of control |
| CCCCCCCCCCCCn1c(C)nc2ccccc21 | BDF1 mice, Friend leukemia sc, tumor weight T/C | 76 % of control |
| CCc1ccccc1N1CCN(C(=O)c2cc(OC)c(OC)c(OC)c2)CC1 | BDF1 mice, Friend leukemia sc, tumor weight T/C | 40 % of control |
| O=C(Nc1ccc(C2=NCCCN2)cc1)c1ccc(NC(=O)c2ccc(C3=NCCCN3)cc2)cc1 | BDF1 mice, Friend leukemia sc, tumor weight T/C | 1 % of control |

### Prompt Please give the measured T/C for this compound: Nc1nc(SCc2ccccc2)c2[nH]cnc2n1
### Response 99 % of control

====

# reported T/C; entries follow
- Test system: BDF1 mice, Friend leukemia sc, tumor weight T/C
- test description: NCI In Vivo Anticancer Drug Screen. Data for tumor model Friend Virus Leukemia (Solid) (subcutaneous) in B6D2F1 (BDF1) mice
- protocol conditions: endpoint: mean tumor weight; dose: 200.0 mg/kg/injection; schedule: Q01DX011 (ip); vehicle: saline; higher = larger tumour
Results filed as inconclusive are left out.

Study these solved cases before continuing.
| compound | tested target | T/C |
| --- | --- | --- |
| COc1ccc2c(c1OC)C(=O)O[C@@H]2[C@H]1c2c(cc3c(c2OC)OCO3)CCN1C | BDF1 mice, Friend leukemia sc, tumor weight T/C | 85 % of control |
| CC(C)NCC(=O)c1ccc(O)c(O)c1 | BDF1 mice, Friend leukemia sc, tumor weight T/C | 102 % of control |
| Nc1ccc(O)cc1 | BDF1 mice, Friend leukemia sc, tumor weight T/C | 4 % of control |

Moving on to another compound below.
### Prompt What is its T/C for BDF1 mice, Friend leukemia sc, tumor weight T/C? Entry: OCC1OC(Oc2ccc(O)cc2)C(O)C(O)C1O (centres undefined)
### Response 75 % of control
